These measurements were taken from paper PMC6715699.

TARGET SYSTEM: CSL (RBP-Jkappa) (UniProt Q06330 1-500)
Sequence (Q06330 whole entry): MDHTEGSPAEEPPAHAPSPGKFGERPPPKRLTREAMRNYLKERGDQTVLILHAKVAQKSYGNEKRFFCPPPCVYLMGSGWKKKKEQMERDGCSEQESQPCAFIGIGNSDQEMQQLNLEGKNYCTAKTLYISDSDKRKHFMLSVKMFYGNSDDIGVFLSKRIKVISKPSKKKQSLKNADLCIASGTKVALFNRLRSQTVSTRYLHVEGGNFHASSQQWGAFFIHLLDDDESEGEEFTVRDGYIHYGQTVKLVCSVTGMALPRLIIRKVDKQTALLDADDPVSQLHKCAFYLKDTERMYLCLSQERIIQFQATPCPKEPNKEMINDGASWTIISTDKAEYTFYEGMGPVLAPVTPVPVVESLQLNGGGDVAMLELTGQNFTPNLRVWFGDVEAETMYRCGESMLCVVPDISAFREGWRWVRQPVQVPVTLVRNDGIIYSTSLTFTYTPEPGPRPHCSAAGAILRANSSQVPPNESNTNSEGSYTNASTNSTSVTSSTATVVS
ASSAY PROCEDURE: MST; second independent experiment; 50 nM labelled DNA; MST in standard MST buffer (composition and pH not given), premium-treated capillaries, Monolith NT.115; 20 min at room temperature stated for the protein mixes
PARTICULARS: protein: commercial; tags: RED-NHS dye when labelled; label: 647-NHS; blunt
MEASURED QUANTITY: pKd
Give only the number. pKd is defined as minus log10 of concentration in molar units.

# input Tell me measured pKd for TELO (TTAGGG)3 (dsDNA) DNA 1: TTAGGGTTAGGGTTAGGG DNA 2: CCCTAACCCTAACCCTAA please.
# output 6.63
